Target: T1, Rb^P S443L (human, UniProt P06400 380-788, S443L)
T1 construct: also called variant 2
T1 sequence (looked up): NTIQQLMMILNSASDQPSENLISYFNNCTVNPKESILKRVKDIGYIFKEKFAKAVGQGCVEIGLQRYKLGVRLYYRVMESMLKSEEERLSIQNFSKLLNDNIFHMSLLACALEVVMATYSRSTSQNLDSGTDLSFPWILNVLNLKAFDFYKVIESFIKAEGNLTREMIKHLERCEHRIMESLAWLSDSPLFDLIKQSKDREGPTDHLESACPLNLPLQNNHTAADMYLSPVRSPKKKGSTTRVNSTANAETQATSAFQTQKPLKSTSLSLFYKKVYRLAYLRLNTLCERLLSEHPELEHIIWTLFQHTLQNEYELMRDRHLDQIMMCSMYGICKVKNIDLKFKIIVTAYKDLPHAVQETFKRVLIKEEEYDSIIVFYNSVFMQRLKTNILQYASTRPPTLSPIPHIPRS
Assay: fluorescence polarisation; 37 °C, after the 25 °C reading ramped over 7 min to 37 °C and 2 min incubation; unlabeled Rb^P against 1.5 nM TMR-E2F1^TD or 7.5 nM TMR-E7^LxCxE; 25 mM Tris pH 8.0, 200 mM NaCl, 1 mM DTT, 0.1% Tween-20; apparent Kd
Conditions: both partners purified
No end group written: not given here. TMR = tetramethyl rhodamine dye
endpoint: Kd (nM)
The response must be a number in nM with no trailing unit.

binder	endpoint	endpoint unit	assay value
{TMR}-GEGIRDLFDCDFGDLTPLD (also called E2F^TD; source: synthetic peptide, bought: GenScript) [TMR-E2F1^TD, peptide of the E2F1 transactivation domain]	Kd	nM	55

--- query ---
Exercise: Indicate the recorded Kd value for this binder: DLYCYEQLN (also: TMR label, position not given here, source: synthetic peptide, bought: GenScript) [TMR-E7^LxCxE, LxCxE peptide of the E7 oncoprotein from HPV]
Key: 21
